Source: patent US12195490B2

// reported log2fc per item
- System: ACHN cell line
- PROCEDURE SUMMARY: drug screen of the SelleckChem kinase inhibitor library with and without 5 uM SU-329, Cell-Titer Glo after 5 days
- Assay type: cell-based
- CONDITION NOTES: kinase inhibitor at 200 nM with and without 5 uM SU329; ACHN cell line; 5 days; Cell-Titer Glo

COMPOUND: CNCc1ccc(-c2cc(-c3nc(-c4ccc(S(=O)(=O)C(C)C)cc4)cnc3N)on2)cc1
log2fc: 0.3083
//
COMPOUND: CC(C)CCN1c2nc(Nc3cc(F)c(O)c(F)c3)ncc2N(C)C(=O)C1C (stereo not shown)
log2fc: 0.7499
//
COMPOUND: N#CCNC(=O)c1ccc(-c2ccnc(Nc3ccc(N4CCOCC4)cc3)n2)cc1
log2fc: −1.441
//
COMPOUND: CCN(CC)CCNC(=O)c1c(C)[nH]c(/C=C2\C(=O)Nc3ccc(F)cc32)c1C [Sunitinib Malate, sunitinib, reference compound]
log2fc: −0.1249

---

- System: ACHN cell line
- PROCEDURE SUMMARY: drug screen of the SelleckChem kinase inhibitor library with and without 5 uM SU-329, Cell-Titer Glo after 5 days
- Format: cell-based
- CONDITION NOTES: kinase inhibitor at 200 nM with and without 5 uM SU329; ACHN cell line; 5 days; Cell-Titer Glo
Tag: Satisfied if measured log2fc is not below 0.06, Not satisfied if it is.

COMPOUND: CN1CCN(c2ccc3nc(-c4c(N)c5c(F)cccc5[nH]c4=O)[nH]c3c2)CC1 [Dovitinib (TKI-258, CHIR-258)]
ANSWER LABEL: Satisfied

COMPOUND: Cc1c(F)cc(C(=O)NC2CC2)cc1-c1ccc(C(=O)NCC(C)(C)C)cn1 [Losmapimod (GW856553X)]
ANSWER LABEL: Not satisfied

COMPOUND: N#C/C(=C/c1ccc(O)c(O)c1)C(=O)NCc1ccccc1 [AG-490 (Tyrphostin B42), AG-490, reference compound]
ANSWER LABEL: Not satisfied

COMPOUND: NC(=O)c1ccc(N(C(N)=O)c2c(F)cccc2F)nc1-c1ccc(F)cc1F [VX-702]
ANSWER LABEL: Not satisfied

COMPOUND: O=C1NC(=O)/C(=C/c2ccc3c(c2)OC(F)(F)O3)S1 [AS-604850]
ANSWER LABEL: Satisfied

COMPOUND: CC(C)(C)c1cnc(CSc2cnc(NC(=O)C3CCNCC3)s2)o1 [SNS-032 (BMS-387032)]
ANSWER LABEL: Not satisfied

COMPOUND: COC(=O)c1ccc2c(c1)NC(=O)/C2=C(\Nc1ccc(N(C)C(=O)CN2CCN(C)CC2)cc1)c1ccccc1 [Nintedanib (BIBF 1120)]
ANSWER LABEL: Satisfied

COMPOUND: FC(F)(F)c1ccc(/C=C/c2nc(COc3ccc(CCCCn4ccnn4)cc3)co2)cc1 [Mubritinib (TAK 165)]
ANSWER LABEL: Satisfied

COMPOUND: CS(=O)(=O)CCNCc1ccc(-c2ccc3ncnc(Nc4ccc(OCc5cccc(F)c5)c(Cl)c4)c3c2)o1 [Lapatinib (GW-572016) Ditosylate, lapatinib, reference compound]
ANSWER LABEL: Satisfied

COMPOUND: COc1ccc(S(=O)(=O)N(C(C)=O)c2ccccc2/C=C/c2cc[n+]([O-])cc2)cc1 [HMN-214]
ANSWER LABEL: Satisfied

COMPOUND: Cc1cc(C(C)Nc2ccccc2)c2nc(N3CCOCC3)cc(=O)n2c1 (stereo not drawn) [TGX-221]
ANSWER LABEL: Not satisfied

COMPOUND: Cc1cc(Nc2cc(CN3CCOCC3)c3nc(C)c(Cc4ccc(Cl)cc4F)n3n2)n[nH]1 [Gandotinib (LY2784544)]
ANSWER LABEL: Satisfied

COMPOUND: C[S+]([O-])c1ccc(-c2nc(-c3ccc(F)cc3)c(-c3ccncc3)[nH]2)cc1 (stereo not drawn) [SB203580]
ANSWER LABEL: Not satisfied

COMPOUND: CN(C)CCCn1cc(C2=C(c3c[nH]c4ccccc34)C(=O)NC2=O)c2ccccc21 [Bisindolylmaleimide I (GF109203X)]
ANSWER LABEL: Not satisfied
